Attribute: ODmax (450 nm)
testedTarget: T1, GST-INADL PDZ domain 3 fusion protein (human), Q8NI35
T1 chain: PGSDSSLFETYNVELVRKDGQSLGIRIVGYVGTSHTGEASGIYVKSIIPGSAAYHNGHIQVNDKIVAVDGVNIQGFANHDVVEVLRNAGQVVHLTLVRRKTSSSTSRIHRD
testDetails: G3 assay titration, immobilised GST-PDZ
No end group written: not given here. *: point of attachment. Biotin = O=C1N[C@H]2[C@H](CS[C@H]2CCCCC(=O)*)N1
Dear colleague, please return just the value in OD 450 nm, with no unit written.

Past entries and their recorded results:
Biotin-YGRKKRRQRRRSRTDRKYWA [Peptide #1832 (biotin-…)] : 0.6
Biotin-YGRKKRRQRRRARGDRKYIV [Peptide #1838 (biotin-…)] : 2.6
Biotin-YGRKKRRQRRRARGDRTIIY [Peptide #1848 (biotin-…)] : 1.2
YGRKKRRQRRRSTNSVRLML (not fully specified) : 1.9
Biotin-YGRKKRRQRRRARSDRTIIA [Peptide #1830 (biotin-…)] : 1.2

Reported ODmax (450 nm), binder Biotin-YGRKKRRQRRRSRTDRKYQI [Peptide #1839 (biotin-…)] : ____
1.6

Biotin-YGRKKRRQRRRARGRRETWV [Peptide #1854 (biotin-…)] , same question.
2.1

Biotin-YGRKKRRQRRRARTDRKVEV [Peptide #1837 (biotin-…)] , same question.
0.37

Biotin-YGRKKRRQRRRARGDRKIRV [Peptide #1836 (biotin-…)] , same question.
0.3

Biotin-YGRKKRRQRRRARGDRLVSL [Peptide #1843 (biotin-…)] , same question.
1.2

Biotin-YGRKKRRQRRRARGDRYRIV [Peptide #1845 (biotin-…)] , same question.
2.2

Biotin-YGRKKRRQRRRARGTRLVWV [Peptide #1844 (biotin-…)] , same question.
2.4

Biotin-YGRKKRRQRRRQDERRLIVL [Peptide #1842 (biotin-…)] , same question.
1.9

Biotin-YGRKKRRQRRRARSDRTIWA [Peptide #1829 (biotin-…)] , same question.
1.4
